- experimental.system: human recombinant TYK2 protein (Homo sapiens)
- test.name: TYK2 activity inhibition assay (HTRF kinase detection)
- conditions: 11.25 μM ATP substrate solution
measurement.name: IC50 (nM)

These recorded examples may help you get a feel for the data.
CC(C)(C(N)=O)c1ccc(Nc2nc(-c3c(F)cccc3F)n3cc[nH]c(=O)c23)cc1 | 0.1
CC(=O)N1CCC(c2nc(Nc3ccc(C(=O)N4CCOCC4)cc3)c3c(=O)[nH]ccn23)CC1 | 23
O=C(c1ccc(Nc2nc(C3CCN(C4CC4)CC3)n3cc[nH]c(=O)c23)cc1)N1CCOCC1 | 12

P: O=C1NCCn2c(-c3c(F)cccc3F)nc(Nc3cnn(CC(=O)N4CCOCC4)c3)c21
Q: CN1CCN(C(=O)c2ccc(Nc3nc(-c4c(F)cccc4F)n4cc[nH]c(=O)c34)cc2)CC1
R: CN1CCN(C(=O)C(C)(C)c2ccc(Nc3nc(-c4c(F)cccc4Cl)n4cc[nH]c(=O)c34)cc2)CC1
S: CC(C)(C(=O)N1CCOCC1)c1ccc(Nc2nc(-c3c(F)cccc3F)n3c2C(=O)NCC3)cc1
T: CN1CCN(C(=O)Cn2cc(Nc3nc(-c4c(F)cccc4F)n4c3C(=O)NCC4)cn2)CC1
**Query** Let's sort these by IC50, smallest first. Go ahead? Write the labels, ordered according to the request.
**Result** Q, R, S, P, T

I: Cn1ccc(Nc2nc(-c3c(F)cccc3F)n3c2C(=O)NCC3)n1
II: O=C(c1ccc(Nc2nc(-c3c(F)cccc3F)n3cc[nH]c(=O)c23)cc1)N1CCOCC1
**Query** Among I and II , whose measured IC50 is the smaller figure? // caller expects the label of the chosen entry
**Result** II
(II: 0.2 nM, I: 220 nM)

I: O=c1[nH]ccn2c(-c3c(F)cccc3F)nc(Nc3ccc(N4CCOCC4)cn3)c12
II: Cn1cc(Nc2nc(-c3c(F)cccc3Cl)n3cc[nH]c(=O)c23)cn1
III: O=C1NCCn2c(-c3c(F)cccc3F)nc(Nc3cccc(C(=O)N4CCOCC4)c3)c21
IV: O=C(Cc1ccc(Nc2nc(-c3c(F)cccc3F)n3cc[nH]c(=O)c23)cc1)N1CCOCC1
V: O=C(c1ccc(Nc2nc(-c3c(F)cccc3Cl)n3cc[nH]c(=O)c23)cc1)N1CCNCC1
**Query** Please list these in order of increasing IC50. Thank you! Answer format: list of labels, ordered as asked.
**Result** V, IV, II, I, III
(V: 0.1 nM, IV: 0.3 nM, II: 0.7 nM, I: 7 nM, III: 50 nM)

# credit: patent US20240246984A1
